system: Escherichia coli TOP10; test: shrunken log2 fold change of peptide-encoding DNA abundance (4.5 h post-induction vs induction); higher = less antimicrobial activity (less host growth inhibition); conditions: time post-induction: 4.5 h; library: site-saturation at positions 5, 18, 19, 20;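 further: peptides expressed intracellularly from a pBAD plasmid library in pooled LB shake-flask culture, induced with 0.3% L-arabinose, DNA abundance read by NGS, three biological replicates, DESeq2 with apeglm shrinkage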
measured-endpoint: shrunken log2 fold change

{"input-sequence": "RRIRMRPPRLPRPRPRPMFKPRP", "measured-endpoint": "shrunken log2 fold change", "obs-value": 0.0609}
{"input-sequence": "RRIRKRPPRLPRPRPRPLQDPRP", "measured-endpoint": "shrunken log2 fold change", "obs-value": 0.485}
{"input-sequence": "RRIRVRPPRLPRPRPRPNNFPRP", "measured-endpoint": "shrunken log2 fold change", "obs-value": 1.9}
{"input-sequence": "RRIRRRPPRLPRPRPRPNSIPRP", "measured-endpoint": "shrunken log2 fold change", "obs-value": -0.236}
{"input-sequence": "RRIRIRPPRLPRPRPRPTDIPRP", "measured-endpoint": "shrunken log2 fold change", "obs-value": -0.359}
{"input-sequence": "RRIRVRPPRLPRPRPRPMHTPRP", "measured-endpoint": "shrunken log2 fold change", "obs-value": 0.0814}
{"input-sequence": "RRIRIRPPRLPRPRPRPLICPRP", "measured-endpoint": "shrunken log2 fold change", "obs-value": -0.738}
{"input-sequence": "RRIRLRPPRLPRPRPRPLFDPRP", "measured-endpoint": "shrunken log2 fold change", "obs-value": -0.148}
{"input-sequence": "RRIRDRPPRLPRPRPRPRVFPRP", "measured-endpoint": "shrunken log2 fold change", "obs-value": 0.485}
{"input-sequence": "RRIRIRPPRLPRPRPRPAMNPRP", "measured-endpoint": "shrunken log2 fold change", "obs-value": -0.495}
{"input-sequence": "RRIRLRPPRLPRPRPRPTFVPRP", "measured-endpoint": "shrunken log2 fold change", "obs-value": -0.162}
{"input-sequence": "RRIRYRPPRLPRPRPRPQLPPRP", "measured-endpoint": "shrunken log2 fold change", "obs-value": -0.0333}
{"input-sequence": "RRIRKRPPRLPRPRPRPTSGPRP", "measured-endpoint": "shrunken log2 fold change", "obs-value": -0.064}
{"input-sequence": "RRIRARPPRLPRPRPRPERWPRP", "measured-endpoint": "shrunken log2 fold change", "obs-value": 0.956}
{"input-sequence": "RRIRTRPPRLPRPRPRPKKHPRP", "measured-endpoint": "shrunken log2 fold change", "obs-value": -0.265}
